ASSAY DETAILS: Selectivity index, ratio of IC50 for mouse J774 cells to MIC for Mycobacterium tuberculosis H37Rv ATCC 27294
Format: toxicity, cell-based
CONDITION: read-out: Selectivity Index
MEASURED PROPERTY: selectivity ratio

[
  {
    "COMPOUND": "O=C(NCCc1ccccc1)c1cc([N+](=O)[O-])cc([N+](=O)[O-])c1",
    "selectivity ratio": "> 80"
  },
  {
    "COMPOUND": "Cc1ccc(C(C)NC(=O)c2cc([N+](=O)[O-])c(C)c([N+](=O)[O-])c2)cc1 (racemic)",
    "selectivity ratio": "> 1330"
  },
  {
    "COMPOUND": "C[C@@H](NC(=O)c1cc([N+](=O)[O-])cc([N+](=O)[O-])c1)c1ccccc1",
    "selectivity ratio": "> 333"
  },
  {
    "COMPOUND": "Cc1ccc([C@@H](C)NC(=O)c2cc([N+](=O)[O-])c(C)c([N+](=O)[O-])c2)cc1",
    "selectivity ratio": "> 666"
  },
  {
    "COMPOUND": "Cc1c([N+](=O)[O-])cc(C(=O)N[C@H](C)c2ccc(F)cc2)cc1[N+](=O)[O-]",
    "selectivity ratio": "> 333"
  }
]

Please go through the list and note selectivity ratio for each compound.
1. Cc1ccc([C@@H](C)NC(=O)c2cc([N+](=O)[O-])cc([N+](=O)[O-])c2)cc1
2. Cc1c([N+](=O)[O-])cc(C(=O)N[C@@H](C)c2ccc(F)cc2)cc1[N+](=O)[O-]

1. > 1330
2. > 1330
